# System: Plasmodium falciparum
# Assay notes: GSK_TCMDC: Inhibition of Plasmodium falciparum 3D7 in whole red blood cells, using parasite LDH activity as an index of growth. Test compounds present at 2uM
# Assay type: functional
Observation type: Inhibition (%)
Response body: numeric value in %, unit text excluded.

Previously resolved entries follow.
The observed Inhibition for CCCCCC(=O)N1CCOC(CCN2CCc3c(c4ccccc4n3C)C2)(c2ccc(Cl)c(Cl)c2)C1 (stereo not given) when tested with Plasmodium falciparum stands at 95

Observed Inhibition, Plasmodium falciparum, Cc1cccc2nc(-c3cccc(-c4ccc(NC(=O)C5CCN(C)CC5)cc4)c3)[nH]c12 : 100

The value of Inhibition recorded for CCCc1cc(Cc2cnc(N)nc2N)cc(CC)c1OC.Cl when tested on Plasmodium falciparum reads 97

Tested on Plasmodium falciparum, the item Cc1ccccc1CNc1noc(-c2c(F)cccc2Cl)n1 showed Inhibition equal to 97

CCOc1ccccc1CNc1nccc(NCc2ccccc2OC)n1 tested on Plasmodium falciparum gave Inhibition: 87

Further cases:
So the reported Inhibition for CCCc1cc(OC)c(CC2c3cc(O)c(C)cc3CCN2C)cc1OC.Cl (stereo not given) , on Plasmodium falciparum, turned out to be 99

Sample Cc1[nH]c(C)c(-c2ccc(OCCCCSc3ccncc3)cc2)c(=O)c1Br , system: Plasmodium falciparum. Its Inhibition is 97

Bench note, Plasmodium falciparum: COc1ccc2nc(C)cc(NCc3cccc4ccccc34)c2c1.Cl , Inhibition reads 100
